Where do these numbers come from? They come from the supplement of paper PMC6555819.

I'd appreciate it if you could supply PBM binding z-score values for the items below.
Tested on: PPARg:RXRa 30nM:10nM, anti-RXR (NR concentration 30 nM, RXRa partner concentration 10 nM)
Assay: PBM binding z-score (relative to random genomic background probes); higher = stronger binding; sequences stand for … in GC…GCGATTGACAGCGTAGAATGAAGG
Give bare numbers.

Check out these entries, answers already filled in.
> print(dat)
                                  seq     measurement.kind  reported.result
1  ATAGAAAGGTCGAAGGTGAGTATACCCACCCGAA  PBM binding z-score             2.38
2  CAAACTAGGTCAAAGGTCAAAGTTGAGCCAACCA  PBM binding z-score             12.5
3  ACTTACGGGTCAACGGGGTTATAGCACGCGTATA  PBM binding z-score             2.51
4  CTAACTAGGTCACAGAGGTCAAAGTCCGTGCGTA  PBM binding z-score             7.16

Hey, can you go through the list below and give me PBM binding z-score for every item?
1. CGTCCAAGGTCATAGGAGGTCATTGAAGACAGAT
2. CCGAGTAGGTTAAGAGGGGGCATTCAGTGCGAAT
3. ATATGGAGGTTAGGGTCATTCAGAAAGTAGGGAA
4. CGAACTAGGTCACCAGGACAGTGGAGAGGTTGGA
5. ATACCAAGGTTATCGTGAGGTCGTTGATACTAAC
6. CAAACTAGGTCACGAAAGGTCAAAGCCGAATGAC

Return:
2.75
0.978
1.89
4.41
0.633
7.38

Hey, can you go through the list below and give me PBM binding z-score for every item?
1. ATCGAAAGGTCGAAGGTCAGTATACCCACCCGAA
2. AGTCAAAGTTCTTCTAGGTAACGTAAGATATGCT

Return:
1: 3.83; 2: 0.354

----------
Tested on: PPARg:RXRa 270nM:90nM, anti-RXR (NR concentration 270 nM, RXRa partner concentration 90 nM)
Assay: PBM binding z-score (relative to random genomic background probes); higher = stronger binding; sequences stand for … in GC…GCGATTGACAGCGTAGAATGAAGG
I'd appreciate it if you could supply PBM binding z-score values for the items below.
Give bare numbers.

Check out these entries, answers already filled in.
> print(dat)
                                  seq     measurement.kind  reported.result
1  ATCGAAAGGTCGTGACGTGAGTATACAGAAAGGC  PBM binding z-score             3.82
2  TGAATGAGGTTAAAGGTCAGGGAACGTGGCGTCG  PBM binding z-score             9.95
3  CGTCCAAGGTCAGATAGGTCAGTGAATGCCGAGT  PBM binding z-score             3.09
4  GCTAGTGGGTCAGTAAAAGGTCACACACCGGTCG  PBM binding z-score             5.98
5  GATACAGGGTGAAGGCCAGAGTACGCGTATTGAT  PBM binding z-score             1.72

Hey, can you go through the list below and give me PBM binding z-score for every item?
1. CCGAGTAGGTTACGAGCGGGCATTCAGTGCGAAT
2. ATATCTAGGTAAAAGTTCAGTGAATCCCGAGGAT
3. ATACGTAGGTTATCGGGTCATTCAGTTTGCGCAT
4. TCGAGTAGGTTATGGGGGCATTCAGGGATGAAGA

Return:
[0.819, 9.29, 3.39, 4.86]

Hey, can you go through the list below and give me PBM binding z-score for every item?
1. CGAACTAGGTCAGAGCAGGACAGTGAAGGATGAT
2. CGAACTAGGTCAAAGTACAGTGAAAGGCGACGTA
3. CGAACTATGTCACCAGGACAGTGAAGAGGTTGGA

Return:
1. 5.01
2. 7.61
3. 1.26

----------
I'd appreciate it if you could supply PBM binding z-score values for the items below.
Tested on: PPARg:RXRa IVT, anti-PPARg (NR concentration 270 nM, RXRa partner concentration 90 nM)
Assay: PBM binding z-score (relative to random genomic background probes); higher = stronger binding; sequences stand for … in GC…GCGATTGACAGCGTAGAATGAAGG
Numbers only.

Check out these entries, answers already filled in.
> print(dat)
                                  seq     measurement.kind  reported.result
1  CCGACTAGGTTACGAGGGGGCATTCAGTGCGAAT  PBM binding z-score             4.93
2  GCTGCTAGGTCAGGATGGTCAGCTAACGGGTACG  PBM binding z-score             3.02
3  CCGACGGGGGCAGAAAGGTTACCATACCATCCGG  PBM binding z-score             2.55
4  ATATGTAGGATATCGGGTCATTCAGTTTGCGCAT  PBM binding z-score             4.09
5  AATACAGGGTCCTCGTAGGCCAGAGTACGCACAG  PBM binding z-score            0.716
6  CCTAGTTGGTCAGGAGGCCACACACCGGATATGA  PBM binding z-score             1.37

Hey, can you go through the list below and give me PBM binding z-score for every item?
1. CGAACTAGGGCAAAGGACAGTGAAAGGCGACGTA
2. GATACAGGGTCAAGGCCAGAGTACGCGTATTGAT
3. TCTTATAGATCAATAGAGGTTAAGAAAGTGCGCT
4. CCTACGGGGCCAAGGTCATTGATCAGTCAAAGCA

Return:
[6.68, 3.95, 0.653, 1.73]

Hey, can you go through the list below and give me PBM binding z-score for every item?
1. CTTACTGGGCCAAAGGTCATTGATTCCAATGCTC
2. TCGAGTAGGTTACGGGGGCATTCACGGATGAAGA
3. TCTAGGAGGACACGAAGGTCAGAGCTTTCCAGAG
4. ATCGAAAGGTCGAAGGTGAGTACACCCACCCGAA
5. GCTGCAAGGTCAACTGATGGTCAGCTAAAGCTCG
6. CGCCCAAGGTCAGCAGGTCAGTGAAAGCGACGTG

Return:
1: 8.39; 2: 6.04; 3: 1.99; 4: 2.74; 5: 3.5; 6: 3.56

Hey, can you go through the list below and give me PBM binding z-score for every item?
1. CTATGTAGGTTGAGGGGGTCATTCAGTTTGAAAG
2. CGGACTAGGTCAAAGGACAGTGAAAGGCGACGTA
3. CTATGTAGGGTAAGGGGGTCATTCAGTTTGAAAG
4. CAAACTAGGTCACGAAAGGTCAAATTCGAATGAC
5. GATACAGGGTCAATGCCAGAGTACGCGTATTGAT
6. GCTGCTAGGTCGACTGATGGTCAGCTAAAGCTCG

Return:
1: 5.16; 2: 7.9; 3: 7.72; 4: 9.14; 5: 3.45; 6: 0.463

Hey, can you go through the list below and give me PBM binding z-score for every item?
1. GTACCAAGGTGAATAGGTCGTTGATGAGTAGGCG
2. TAGCCTAGGTCAGATCGGGCCAGTCTACGCTATA

Return:
1. 2.78
2. 1.41

Hey, can you go through the list below and give me PBM binding z-score for every item?
1. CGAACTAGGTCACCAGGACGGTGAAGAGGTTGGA
2. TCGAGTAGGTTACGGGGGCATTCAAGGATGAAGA

Return:
1: 8.73; 2: 6

----------
Test system: THRa:RXRa (NR concentration 90 nM, RXRa partner concentration 90 nM)
Test: PBM binding z-score (relative to random genomic background probes); higher = stronger binding; sequences stand for … in GC…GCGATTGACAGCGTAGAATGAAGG
I'd appreciate it if you could supply PBM binding z-score values for the items below.
One number for each entry.

Hey, can you go through the list below and give me PBM binding z-score for every item?
1. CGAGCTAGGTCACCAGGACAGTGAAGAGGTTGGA
2. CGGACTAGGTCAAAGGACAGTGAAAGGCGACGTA
3. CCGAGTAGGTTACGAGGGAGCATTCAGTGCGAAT

Return:
1: 3.18; 2: 2.57; 3: 0.829

Hey, can you go through the list below and give me PBM binding z-score for every item?
1. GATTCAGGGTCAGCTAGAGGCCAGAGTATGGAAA
2. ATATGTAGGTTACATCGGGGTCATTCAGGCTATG
3. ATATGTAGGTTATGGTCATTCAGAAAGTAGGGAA

Return:
1. 3.52
2. 4.32
3. 1.05

----------
System: PPARg:RXRa 90nM:30nM, anti-RXR (NR concentration 90 nM, RXRa partner concentration 30 nM)
Test: PBM binding z-score (relative to random genomic background probes); higher = stronger binding; sequences stand for … in GC…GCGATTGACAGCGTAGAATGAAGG
I'd appreciate it if you could supply PBM binding z-score values for the items below.
One number for each entry.

> print(dat)
                                  seq  reported.result
1  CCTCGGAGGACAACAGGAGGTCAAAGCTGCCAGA            0.958
2  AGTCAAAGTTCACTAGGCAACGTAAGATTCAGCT             5.38
3  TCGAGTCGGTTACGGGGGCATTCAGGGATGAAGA             2.15
4  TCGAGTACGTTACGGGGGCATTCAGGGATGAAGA             1.85
5  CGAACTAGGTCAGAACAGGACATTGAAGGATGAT             3.62

Hey, can you go through the list below and give me PBM binding z-score for every item?
1. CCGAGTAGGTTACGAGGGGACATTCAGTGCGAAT
2. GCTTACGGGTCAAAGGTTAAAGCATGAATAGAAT
3. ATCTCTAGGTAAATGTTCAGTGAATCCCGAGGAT
4. CGTGCAAGGTCAGAGAGGTCAGTGAATGCCGAGT
5. CGTCCAAGGTCAATGCTAGGCCAGTGAAAGCATT

Return:
[1.13, 10.3, 0.967, 3.09, 2.82]

Hey, can you go through the list below and give me PBM binding z-score for every item?
1. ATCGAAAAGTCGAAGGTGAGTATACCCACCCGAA
2. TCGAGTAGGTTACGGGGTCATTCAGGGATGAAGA

Return:
1. 0.251
2. 5.91
